A collection of compounds and their measured activity coefficient
test_method_notes: activity coefficient (dimensionless); of the first substance listed, at infinite dilution; xn = mol fraction of the nth substance listed
settings: 318.15 K; 101 kPa; Liquid; Chromatography; x1 = 0
observed_property: activity coefficient

compound | measured
C#CCCCCC [1-heptyne] + O=S(=O)([N-]S(=O)(=O)C(F)(F)F)C(F)(F)F.OCCC[n+]1ccccc1 | 9.81
CC(C)CC(C)(C)C [2,2,4-trimethylpentane] + O=S(=O)([N-]S(=O)(=O)C(F)(F)F)C(F)(F)F.OCCC[n+]1ccccc1 | 73.9
Cc1ccccc1C [1,2-dimethylbenzene] + O=S(=O)([N-]S(=O)(=O)C(F)(F)F)C(F)(F)F.OCCC[n+]1ccccc1 | 3.11
CCCCCCCCCC [decane] + O=S(=O)([N-]S(=O)(=O)C(F)(F)F)C(F)(F)F.OCCC[n+]1ccccc1 | 284

Where these numbers come from: the NIST ThermoML archive (doi:10.1016/j.jct.2011.04.018)
